testSystem: MMP-2 (Homo sapiens)
Sequence (P08253 110-660): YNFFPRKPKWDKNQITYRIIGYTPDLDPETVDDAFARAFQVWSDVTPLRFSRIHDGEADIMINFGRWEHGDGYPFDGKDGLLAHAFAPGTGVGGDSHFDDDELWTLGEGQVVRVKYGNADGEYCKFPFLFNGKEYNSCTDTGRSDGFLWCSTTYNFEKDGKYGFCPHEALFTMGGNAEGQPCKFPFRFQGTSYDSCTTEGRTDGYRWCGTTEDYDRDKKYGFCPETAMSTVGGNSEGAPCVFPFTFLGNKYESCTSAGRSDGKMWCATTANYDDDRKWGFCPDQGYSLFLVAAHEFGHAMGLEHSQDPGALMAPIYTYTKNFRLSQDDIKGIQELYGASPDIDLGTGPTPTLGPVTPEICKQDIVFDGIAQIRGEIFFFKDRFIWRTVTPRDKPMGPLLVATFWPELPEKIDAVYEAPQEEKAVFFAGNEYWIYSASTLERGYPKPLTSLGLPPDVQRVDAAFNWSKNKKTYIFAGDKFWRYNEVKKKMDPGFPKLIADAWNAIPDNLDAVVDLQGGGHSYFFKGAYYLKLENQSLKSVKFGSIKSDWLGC
protocolNotes: Automated MMP Profiling Assay, MMP-2 fluorogenic
Format: biochemical
experimentalContext: 96-well automated, P218; read-out: MMP-2 Fluorogenic IC50 (profiling)
pIC50: −log10 of the molar value.
Class condition met: pIC50 at least 7. Class condition not met: pIC50 below 7.

Prompt line: Does CC(C)(C)CC(=O)N1CC[C@H](C(=O)c2ccc(-c3ccc(Cl)cc3)cc2)[C@H]1C(=O)O [Example 171] have a reported pIC50 of at least 7?
Response line: condition not met

Prompt line: Does O=C(Nc1ccc(-c2ccc(C(=O)CC(CCc3ccccc3)C(=O)O)cc2)cc1)OCc1ccccc1 (stereo not drawn) [Example 137] have a reported pIC50 of at least 7?
Response line: condition not met

Prompt line: Does O=C(C[C@@H](CCN1C(=O)c2ccccc2C1=O)C(=O)O)c1ccc(-c2ccc(Cl)cc2)cc1 [Example 269] have a reported pIC50 of at least 7?
Response line: condition not met

Prompt line: Does O=C(CC(CSc1ccccc1)C(=O)O)c1ccc(-c2ccc(O)cc2)cc1 (stereo not drawn) [Example 444] have a reported pIC50 of at least 7?
Response line: condition met

Prompt line: Does CCCCCOc1ccc(-c2ccc(C(=O)[C@H]3CC[C@@H](Cc4ccccc4)[C@@H]3C(=O)O)cc2)cc1 [Example 324] have a reported pIC50 of at least 7?
Response line: condition met

Prompt line: Does NC(=O)c1ccc(COc2ccc(-c3ccc(C(=O)CC(CCCc4ccccc4)C(=O)O)cc3)cc2)cc1 (stereo not drawn) [Example 112] have a reported pIC50 of at least 7?
Response line: condition met

Prompt line: Does O=C(CC(CCCc1ccccc1)C(=O)O)c1ccc(-c2ccc(OCc3ccccc3)cc2)cc1 (stereo not drawn) [Example 99] have a reported pIC50 of at least 7?
Response line: condition met

Prompt line: Does CCN(CC)C(=O)c1cccc(SCC(CC(=O)c2ccc(-c3ccc(Cl)cc3)cc2)C(=O)O)c1 (stereo not drawn) [Example 435] have a reported pIC50 of at least 7?
Response line: condition met

Prompt line: Does CCCCCOc1ccc(-c2ccc(C(=O)CC(CCc3cccc(C(=O)N(CC)CC)c3)C(=O)O)cc2)cc1 (stereo not drawn) [Example 164] have a reported pIC50 of at least 7?
Response line: condition met

Prompt line: Does COc1ccccc1C(=O)OC[C@@H]1CC[C@H](C(=O)c2ccc(-c3ccc(Cl)cc3)cc2)[C@H]1C(=O)O (relative stereo) [Example 381] have a reported pIC50 of at least 7?
Response line: condition met

Prompt line: Does CCCCCOc1ccc(-c2ccc(C(=O)[C@H]3CC[C@@H](Sc4ccccc4)[C@@H]3C(=O)O)cc2)cc1 (single isomer, unassigned) [Example 319] have a reported pIC50 of at least 7?
Response line: condition met

Prompt line: Does O=C(CC(CCNC(=O)c1ccccc1C(=O)O)C(=O)O)c1ccc(-c2ccc(Cl)cc2)cc1 (single isomer, unassigned) [Example 280] have a reported pIC50 of at least 7?
Response line: condition met

Prompt line: Does Cc1cccc(C)c1SCC(CC(=O)c1ccc(-c2ccc(Cl)cc2)cc1)C(=O)O (stereo not drawn) [Example 433] have a reported pIC50 of at least 7?
Response line: condition met

Prompt line: Does O=C(C[C@H](CCCc1ccccc1)C(=O)O)c1ccc(-c2ccc(OCc3ccccc3)cc2)cc1 [Example 100] have a reported pIC50 of at least 7?
Response line: condition met

Prompt line: Does Cc1ccc(COc2ccc(-c3ccc(C(=O)CC(CCCc4ccccc4)C(=O)O)cc3)cc2)cc1 (stereo not drawn) [Example 103] have a reported pIC50 of at least 7?
Response line: condition met

Prompt line: Does O=C(C[C@@H](CCCc1ccccc1)C(=O)O)c1ccc(-c2ccc(Cl)cc2)cc1 [Example 115] have a reported pIC50 of at least 7?
Response line: condition not met

Prompt line: Does CCOc1ccc(-c2ccc(C(=O)CC(CCc3ccccc3)C(=O)O)cc2)cc1 (stereo not drawn) [Example 156] have a reported pIC50 of at least 7?
Response line: condition met

Prompt line: Does O=C(CC(CCN1C(=O)c2ccccc2C1=O)C(=O)O)c1ccc(-c2ccc(OCc3ccccc3)cc2)cc1 (stereo not drawn) [Example 271] have a reported pIC50 of at least 7?
Response line: condition met

Prompt line: Does CCCCC(=O)Nc1ccc(-c2ccc(C(=O)CC(CCc3ccccc3)C(=O)O)cc2)cc1 (stereo not drawn) [Example 140] have a reported pIC50 of at least 7?
Response line: condition not met

Prompt line: Does O=C(O)[C@H]1[C@@H](SCc2ccccc2)CC[C@@H]1C(=O)c1ccc(-c2ccc(Cl)cc2)cc1 (relative stereo) [Example 440] have a reported pIC50 of at least 7?
Response line: condition met

Prompt line: Does CCCCCOc1ccc(-c2ccc(C(=O)C[C@H](CCCc3ccccc3)C(=O)O)cc2)cc1 [Example 86] have a reported pIC50 of at least 7?
Response line: condition met

Prompt line: Does O=C(O)[C@H]1[C@H](CN2C(=O)c3cc(Cl)c(Cl)cc3C2=O)CC[C@@H]1C(=O)c1ccc(-c2ccc(Cl)cc2)cc1 (relative stereo) [Example 391] have a reported pIC50 of at least 7?
Response line: condition met

Prompt line: Does O=C(O)c1cccc(CCC(CC(=O)c2ccc(-c3ccc(Cl)cc3)cc2)C(=O)O)c1 (stereo not drawn) [Example 148] have a reported pIC50 of at least 7?
Response line: condition met

Prompt line: Does CC(C)COC(=O)N1CC[C@H](C(=O)c2ccc(-c3ccc(Cl)cc3)cc2)[C@H]1C(=O)O [Example 172] have a reported pIC50 of at least 7?
Response line: condition not met

###

I'd appreciate it if you could supply pIC50 values for the items below.
testSystem: MMP-2 (Homo sapiens)
protocolNotes: Automated MMP Profiling Assay, MMP-2 fluorogenic
Assay type: biochemical
experimentalContext: 96-well automated, P218; read-out: MMP-2 Fluorogenic IC50 (profiling)
Field pIC50 (float): negative decimal logarithm of the concentration in molar.

Prompt line: Param item = CCCCOc1ccc(-c2ccc(C(=O)CC(CCc3ccccc3)C(=O)O)cc2)cc1 (stereo not shown) [Example 160] ; retrieve measured pIC50.
Response line: 7.38

Prompt line: Param item = COC(=O)c1ccccc1S[C@H]1CC[C@H](C(=O)c2ccc(-c3ccc(Cl)cc3)cc2)[C@H]1C(=O)O [Example 299] ; retrieve measured pIC50.
Response line: 7.28

Prompt line: Param item = O=C(O)[C@H]1[C@H](CSc2nc3ccccc3s2)CC[C@@H]1C(=O)c1ccc(-c2ccc(Cl)cc2)cc1 (relative stereo) [Example 375] ; retrieve measured pIC50.
Response line: 7.17

Prompt line: Param item = O=C(CC(CN1C(=O)c2ccccc2C1=O)C(=O)O)c1ccc(-c2ccc(Cl)cc2)cc1 (stereo not shown) [Example 276] ; retrieve measured pIC50.
Response line: 7.41

Prompt line: Param item = CCOc1ccc(-c2ccc(C(=O)CC(CCN3C(=O)c4ccccc4C3=O)C(=O)O)cc2)cc1 (stereo not shown) [Example 273] ; retrieve measured pIC50.
Response line: 8.64

Prompt line: Param item = O=C(O)[C@H]1[C@H](CN2C(=O)c3ccc([N+](=O)[O-])cc3C2=O)CC[C@@H]1C(=O)c1ccc(-c2ccc(Cl)cc2)cc1 (relative stereo) [Example 386] ; retrieve measured pIC50.
Response line: 7.93

Prompt line: Param item = CC(=O)O[C@H]1C[C@H](C(=O)c2ccc(-c3ccc(Cl)cc3)cc2)[C@H]1C(=O)O (relative stereo) [Example 395] ; retrieve measured pIC50.
Response line: 6.25

###

I'd appreciate it if you could supply IC50 values for the items below.
testSystem: MMP-9 (Homo sapiens)
Construct: from tissue; host or cells: human polymorphonuclear leukocytes (PMN) from whole blood (New York Blood Center), PMA-stimulated supernatant
Sequence (P14780 107-707 limits assumed): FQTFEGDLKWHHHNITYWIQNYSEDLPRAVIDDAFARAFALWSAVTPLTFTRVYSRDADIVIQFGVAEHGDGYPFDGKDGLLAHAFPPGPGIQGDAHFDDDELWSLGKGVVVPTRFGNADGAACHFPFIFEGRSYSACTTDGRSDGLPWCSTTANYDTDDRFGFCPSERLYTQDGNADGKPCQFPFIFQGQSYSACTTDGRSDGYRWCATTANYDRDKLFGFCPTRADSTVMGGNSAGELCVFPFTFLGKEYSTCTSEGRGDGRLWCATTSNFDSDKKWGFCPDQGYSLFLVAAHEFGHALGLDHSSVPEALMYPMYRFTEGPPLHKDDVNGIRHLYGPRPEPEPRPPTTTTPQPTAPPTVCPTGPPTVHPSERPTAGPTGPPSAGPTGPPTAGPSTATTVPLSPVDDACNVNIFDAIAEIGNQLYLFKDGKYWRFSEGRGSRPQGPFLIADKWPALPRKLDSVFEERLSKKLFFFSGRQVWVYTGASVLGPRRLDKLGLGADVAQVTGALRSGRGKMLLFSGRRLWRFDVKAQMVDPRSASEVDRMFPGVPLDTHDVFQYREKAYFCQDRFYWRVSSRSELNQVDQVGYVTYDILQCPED
protocolNotes: Thiopeptilide MMP-9 Inhibition Assay
Format: biochemical
experimentalContext: pH 6.5; x (n) = average of n determinations; read-out: MMP-9: Thiopep. IC50
Field: numeric (nM). Do not append units.

Prompt line: Param item = CC(C)CC(CC(=O)c1ccc(-c2ccc(Cl)cc2)cc1)C(=O)O (stereo not shown) ; retrieve measured IC50.
Response line: 1000

Prompt line: Param item = CCCCOc1ccc(-c2ccc(C(=O)CC(CCCc3ccccc3)C(=O)O)cc2)cc1 (stereo not shown) ; retrieve measured IC50.
Response line: 480

Prompt line: Param item = CC(C)(C)C(=O)SCC(CC(=O)c1ccc(-c2ccc(Cl)cc2)cc1)C(=O)O (single isomer, unassigned) [Example 194] ; retrieve measured IC50.
Response line: 750

Prompt line: Param item = O=C(CC(CCCc1ccccc1)C(=O)O)c1ccc(-c2ccc(I)cc2)cc1 (stereo not shown) ; retrieve measured IC50.
Response line: 50

###

testSystem: UniProtKB P08253
protocolNotes: Automated MMP Profiling Assay, MMP-2 fluorogenic
Format: biochemical
experimentalContext: 96-well automated, P218; read-out: MMP-2 Fluorogenic IC50 (profiling)
outcomeMeasure: pIC50
Field pIC50 (float): negative decimal logarithm of the concentration in molar.

Prompt line: Param item = CC(=O)O[C@H]1C[C@@H](C(=O)c2ccc(-c3ccc(Cl)cc3)cc2)[C@H]1C(=O)O (relative stereo) ; retrieve measured pIC50.
Response line: 5.70

Prompt line: Param item = O=C(CC(CCCc1ccccc1)C(=O)O)c1ccc(-c2ccc(Br)cc2)cc1 (stereo not shown) ; retrieve measured pIC50.
Response line: 7.20

Prompt line: Param item = CC(=O)O[C@@H]1C[C@@H](C(=O)c2ccc(-c3ccc(Cl)cc3)cc2)[C@H]1C(=O)O (relative stereo) ; retrieve measured pIC50.
Response line: 5.70

Prompt line: Param item = CCN(CC)C(=O)c1cccc(CCC(CC(=O)c2ccc(-c3ccc(Cl)cc3)cc2)C(=O)O)c1 (stereo not shown) ; retrieve measured pIC50.
Response line: 8.47

Prompt line: Param item = O=C(CC(CCN1C(=O)CCC1=O)C(=O)O)c1ccc(-c2ccc(Cl)cc2)cc1 (stereo not shown) ; retrieve measured pIC50.
Response line: 7.57

Prompt line: Param item = O=C(c1ccc(-c2ccc(Cl)cc2)cc1)[C@H]1CCN(C(=O)NCc2ccccc2)[C@@H]1C(=O)O ; retrieve measured pIC50.
Response line: 7.82

Prompt line: Param item = O=C(c1ccc(-c2ccc(Cl)cc2)cc1)[C@H]1CCN(C(=O)Nc2ccccc2)[C@@H]1C(=O)O ; retrieve measured pIC50.
Response line: 6.98
